- SYSTEM_TESTED: human F508del-CFTR (Homo sapiens, UniProt P13569, DEL508-508)
- Sequence (P13569 with tags, fused parts or gaps DEL508-508): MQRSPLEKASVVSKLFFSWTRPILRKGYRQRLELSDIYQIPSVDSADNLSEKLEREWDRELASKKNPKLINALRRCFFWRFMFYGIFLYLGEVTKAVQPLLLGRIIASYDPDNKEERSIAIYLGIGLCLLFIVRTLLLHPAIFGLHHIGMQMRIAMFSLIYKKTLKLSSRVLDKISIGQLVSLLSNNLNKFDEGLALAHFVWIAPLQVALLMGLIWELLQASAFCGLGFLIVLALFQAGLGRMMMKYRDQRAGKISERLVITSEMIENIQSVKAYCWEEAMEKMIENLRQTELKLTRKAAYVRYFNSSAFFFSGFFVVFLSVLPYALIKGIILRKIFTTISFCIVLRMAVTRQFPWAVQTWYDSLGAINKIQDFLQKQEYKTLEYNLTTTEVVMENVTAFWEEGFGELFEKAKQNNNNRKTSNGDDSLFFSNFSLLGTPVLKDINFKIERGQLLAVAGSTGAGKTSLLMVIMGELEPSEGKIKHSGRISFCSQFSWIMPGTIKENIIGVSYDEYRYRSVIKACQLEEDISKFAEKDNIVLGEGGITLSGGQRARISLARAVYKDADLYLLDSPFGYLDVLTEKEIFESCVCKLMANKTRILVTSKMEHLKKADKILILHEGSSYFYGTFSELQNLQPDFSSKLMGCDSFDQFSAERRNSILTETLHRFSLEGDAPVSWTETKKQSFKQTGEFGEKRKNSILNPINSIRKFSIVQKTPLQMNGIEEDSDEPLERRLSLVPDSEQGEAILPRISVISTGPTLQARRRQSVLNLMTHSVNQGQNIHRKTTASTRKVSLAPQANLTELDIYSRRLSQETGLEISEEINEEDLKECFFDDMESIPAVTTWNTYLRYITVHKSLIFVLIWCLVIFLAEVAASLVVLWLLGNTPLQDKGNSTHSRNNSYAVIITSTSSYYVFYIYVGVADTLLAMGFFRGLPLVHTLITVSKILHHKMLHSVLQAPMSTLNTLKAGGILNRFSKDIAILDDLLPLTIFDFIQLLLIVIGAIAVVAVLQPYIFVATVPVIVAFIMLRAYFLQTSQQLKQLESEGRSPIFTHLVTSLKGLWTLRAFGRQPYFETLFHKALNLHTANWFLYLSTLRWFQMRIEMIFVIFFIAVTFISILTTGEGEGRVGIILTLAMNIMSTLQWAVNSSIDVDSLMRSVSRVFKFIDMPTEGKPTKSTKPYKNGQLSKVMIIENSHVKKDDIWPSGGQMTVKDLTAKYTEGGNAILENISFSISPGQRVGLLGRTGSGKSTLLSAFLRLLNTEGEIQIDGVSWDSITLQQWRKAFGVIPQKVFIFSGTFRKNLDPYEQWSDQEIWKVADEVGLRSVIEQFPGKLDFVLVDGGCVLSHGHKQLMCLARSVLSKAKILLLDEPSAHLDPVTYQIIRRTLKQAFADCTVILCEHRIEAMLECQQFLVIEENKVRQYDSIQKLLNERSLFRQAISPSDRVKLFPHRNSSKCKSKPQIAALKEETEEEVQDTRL
- ASSAY: F508del-CFTR cell surface expression (corrector activity), DiscoveRx ß-galactosidase complementation chemiluminescence assay in recombinant U2OS cell line;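 further: U2OS cells co-expressing ProLink-tagged F508del-CFTR and a membrane-anchored enzyme acceptor, where more surface CFTR restores β-galactosidase activity measured by chemiluminescence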
- EXPERIMENTAL_PARAMETERS: EC50, F508del-CFTR cell surface expression, U2OS cells, 16h compound incubation; geomean values
REPORTED_METRIC: pEC50
Answers are plain numbers, as −log10 of the molar value.

Answered cases to consult:
- STRUCTURE_STRING: "CC(C)C[C@H]1C(=O)N2CCCC[C@@H]2C(=O)N[C@H](Cc2ccccc2)COc2cnc3ccccc3c2C(=O)N[C@H](C(=O)NCCc2cc(C3CC3)no2)CC(=O)N1C"
  RECORDED_NUMBER: 6.77
- STRUCTURE_STRING: "COc1nccc2c1C(=O)N[C@H](C(=O)NCCc1ccc(-n3nccn3)cc1)CC(=O)N(C)[C@@H](CC(C)C)C(=O)N1CCCC[C@@H]1C(=O)N[C@H](Cc1ccccc1)CO2"
  RECORDED_NUMBER: 6.30
- STRUCTURE_STRING: "Cc1cc(CCNC(=O)[C@@H]2CC(=O)N(C)[C@@H](CC(C)C)C(=O)N3CCCC[C@@H]3C(=O)N[C@H](Cc3ccccc3)COc3cnc4c(F)cccc4c3C(=O)N2)on1"
  RECORDED_NUMBER: 6.50

For the 2 molecules below, give their pEC50 values.
1. COc1cccc(CCNC(=O)[C@@H]2CC(=O)N(C)[C@@H](CC(C)C)C(=O)N(C)CC(=O)N[C@H](Cc3ccccc3)COc3ccc4cc(C)oc4c3C(=O)N2)c1
2. Cc1ccc2c(c1)OC[C@@H](Cc1ccccc1)NC(=O)CN(C)C(=O)[C@H](CC(C)C)N(C)C(=O)C[C@@H](C(=O)NCCc1ccc3c(c1)OCO3)NC2=O

[6.58, 6.47]
